src = the supplement of paper PMC8612539

test system: Enterococcus spp.; assay: minimum inhibitory concentration (MIC); conditions: isolate (source animal id): 197
Listed molecules paired with reported minimum inhibitory concentration
parameterMeasured: minimum inhibitory concentration

CC1(C)S[C@@H]2[C@H](NC(=O)Cc3ccccc3)C(=O)N2[C@H]1C(=O)O :: 0.5 µg/mL
CN1C[C@@H]2C[C@H]1CN2c1cc2c(cc1F)c(=O)c(C(=O)O)cn2C1CC1 :: 0.5 µg/mL
CCC[C@@H]1C[C@@H](C(=O)N[C@@H]([C@H]2O[C@H](SC)[C@H](O)[C@@H](O)[C@H]2O)[C@H](C)Cl)N(C)C1 :: 0.5 µg/mL
CS(=O)(=O)c1ccc([C@@H](O)[C@@H](CF)NC(=O)C(Cl)Cl)cc1 :: 2 µg/mL
